Attribution: the supplement of paper PMC10567573

B1: TRIM35 (parent)
chain: WEVQVSPTCPVCKDRASPADLRTN

variants of: B1; assay: protein stability index of a GFP-peptide fusion (GPS, HEK-293T) (PSI 1-6); higher = more stable; settings: c terminus: a fixed tail appended;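 also: lentivirally expressed fusions sorted by FACS into six bins by GFP to DsRed ratio, PSI derived from sequencing read proportions per bin multiplied by bin number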
The recorded protein stability index of each item maps onto one of these classes: label 0 (below 2), label 1 (2 to below 3), label 2 (3 or more)

Use the examples below as a reference point.
variant_code=A19E discrete_label="label 2"
variant_code=R22Y discrete_label="label 1"

Lookup: Class label required: `P7A`
Found: label 0

Lookup: Class label required: `C9E`
Found: label 2

Lookup: Class label required: `W1Q`
Found: label 2

Lookup: Class label required: `C12V`
Found: label 2

Lookup: Class label required: `P7N`
Found: label 0

Lookup: Class label required: `Q4C`
Found: label 1

Lookup: Class label required: `N24C`
Found: label 1

Lookup: Class label required: `T8N`
Found: label 1

Lookup: Class label required: `S6K`
Found: label 0

Lookup: Class label required: `S17F`
Found: label 1

Lookup: Class label required: `S6T`
Found: label 1

Lookup: Class label required: `A16V`
Found: label 1

Lookup: Class label required: `R22N`
Found: label 1

Lookup: Class label required: `V11Y`
Found: label 0

Lookup: Class label required: `S6I`
Found: label 1

Lookup: Class label required: `R22Q`
Found: label 2

Lookup: Class label required: `S6Q`
Found: label 1

Lookup: Class label required: `V3M`
Found: label 1

Lookup: Class label required: `Q4N`
Found: label 1

Lookup: Class label required: `P7W`
Found: label 1
